measured.target: 3-oxoacyl-[acyl-carrier-protein] synthase 2 (Staphylococcus aureus, UniProt Q5TKS0)
Sequence (Q5TKS0 whole entry): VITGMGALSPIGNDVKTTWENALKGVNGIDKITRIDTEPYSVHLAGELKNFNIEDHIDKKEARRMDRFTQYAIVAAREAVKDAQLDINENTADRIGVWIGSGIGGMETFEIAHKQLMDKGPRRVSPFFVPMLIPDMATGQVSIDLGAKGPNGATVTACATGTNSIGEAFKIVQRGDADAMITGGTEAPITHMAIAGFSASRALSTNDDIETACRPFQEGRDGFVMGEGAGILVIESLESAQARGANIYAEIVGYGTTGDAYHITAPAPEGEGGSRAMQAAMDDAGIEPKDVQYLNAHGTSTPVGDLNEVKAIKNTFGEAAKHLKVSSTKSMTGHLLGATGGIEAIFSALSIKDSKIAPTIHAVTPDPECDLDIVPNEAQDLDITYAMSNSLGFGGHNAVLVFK
value.type: pIC50
The value called pIC50 is obtained by taking minus log10 of the concentration in mol/L.

Look at this molecule and give its reported pIC50. C[C@]12O[C@H]3CC1C[C@@]1(C=C(O)C(=O)[C@@](C)(CCC(=O)Nc4c(O)ccc(C(=O)O)c4O)C31)C2O (stereo partly specified)
4.47
